tested on: LXFL 529; assay: NCI tumour cell line growth inhibition, 48 h
Activity calls are given as the source filed them. No stated cut-off is given here; in the data, active = GI50 up to about 1.1 µM and inactive = higher.
# GI50 annotations

chem.smiles: Nc1ncnc2c1N=CN(Oc1ccccc1)N2
GI50: > 100 µM (inactive)

chem.smiles: O=C(O)/C(=C\c1ccccc1Cl)S(=O)(=O)c1ccccc1
GI50: > 100 µM (inactive)

chem.smiles: COc1ccccc1NC(=O)CC(=O)NNCC(=O)Nc1nc(-c2ccccc2)cs1
GI50: > 100 µM (inactive)

* * *

# GI50 annotations
system: DMS-114; experiment: NCI tumour cell line growth inhibition, 48 h
The source made the active and inactive calls. No stated cut-off is given here; in the data, active = GI50 up to about 1.1 µM and inactive = higher.

molecule: COc1ccc(/N=C\c2ccc(N(CCC#N)S(=O)(=O)c3ccccc3)cc2C)cc1
GI50: 13.2 µM (inactive)
//
molecule: O=C(CC1(O)C(=O)Nc2ccc([N+](=O)[O-])cc21)c1ccncc1 (configuration not stated)
GI50: 30.5 µM (inactive)
//
molecule: COc1ccc2cc3nc(O)cc(O)c3cc2c1OC
GI50: > 100 µM (inactive)
//
molecule: [O-][n+]1c(-c2ccccc2)c2nc3ccccc3nc2c2ccccc21
GI50: > 100 µM (inactive)
//
molecule: COc1ccc(CN2CC(C)(C)C2=O)c(OC)c1
GI50: > 100 µM (inactive)
//
molecule: Fc1ccc2c(c1)SC1Oc3ccccc3-c3c1c-2nn3-c1ccccc1 (configuration not stated)
GI50: > 100 µM (inactive)
//
molecule: Cc1[nH]c2ccccc2c1C1Cc2ccccc2N1C(=O)/C=C/C=C/c1ccccc1 (configuration not stated)
GI50: > 100 µM (inactive)
//
molecule: Cc1cccc(C)c1NC(=O)CCCC(=O)C1CC(=O)CCC1=O (configuration not stated)
GI50: > 100 µM (inactive)
//
molecule: Nc1ncnc2c1ncn2C1OC(CSC(F)(F)F)C(O)C1O (configuration not stated)
GI50: > 100 µM (inactive)
//
molecule: Cc1ccccc1-n1c(=O)sc2c(=O)n(-c3ccccc3)c(=S)[nH]c21
GI50: 56.2 µM (inactive)
//
molecule: CCOC(=O)C(=Cc1cc(OC)ccc1OC)C(=O)OCC
GI50: 2.81 µM (inactive)
//
molecule: N#Cc1cccc(NC(=O)c2ccc(C(=O)O)c(C(=O)c3ccc(C(=O)O)c(C(=O)Nc4cccc(C#N)c4)c3)c2)c1
GI50: > 100 µM (inactive)

* * *

# GI50 annotations
test system: TK-10; test: NCI tumour cell line growth inhibition, 48 h
Active and inactive are the calls of the source. No stated cut-off is given here; in the data, active = GI50 up to about 1.1 µM and inactive = higher.

molecule: CC(C)NCCC(O)c1cc2ccccc2o1 (stereo not given)
GI50: > 100 µM (inactive)

molecule: Cc1c(C)c(C)c(-n2c(=O)n(C)c(=O)n2-n2c(=O)n(C)c(=O)n2-c2c(C)c(C)c(C)c(C)c2C)c(C)c1C
GI50: > 100 µM (inactive)

molecule: CC(C)(CN1CCCCC1)C(=O)CC(SCCS(=O)(=O)O)c1ccc(Cl)c(Cl)c1 (stereo not given)
GI50: 5.46 µM (inactive)

molecule: C=CCOC1OC(CO[Si](C)(C)C(C)(C)C)C(OCc2ccccc2)C(OCc2ccccc2)C1OCc1ccccc1 (stereo not given)
GI50: > 100 µM (inactive)

molecule: Cn1c(=O)c(C(=O)NC23CC4CC(CC(C4)C2)C3)c(O)c2ccccc21
GI50: 23.8 µM (inactive)

molecule: O=C(O)CCc1nc(-c2ccccc2)c(-c2ccccc2)o1 [OXAPROZIN]
GI50: > 100 µM (inactive)

molecule: c1ccc2c(OCCSCCCCCCCCCCSCCOc3cccc4ccccc34)cccc2c1
GI50: > 100 µM (inactive)

molecule: NCCCN(CCCN(C(=O)Nc1ccccc1)c1ccccc1)C(=O)Nc1ccccc1
GI50: 38.4 µM (inactive)

molecule: CS(=O)(=O)NNS(=O)(=O)c1ccccc1
GI50: > 100 µM (inactive)

molecule: CCOC(=O)COc1cccc2c1C(=O)CCO2
GI50: > 100 µM (inactive)

// data source = ChEMBL document CHEMBL1201862
